- Target Of Assay: T1, VEGF (human, UniProt P15692)
- T1 chain: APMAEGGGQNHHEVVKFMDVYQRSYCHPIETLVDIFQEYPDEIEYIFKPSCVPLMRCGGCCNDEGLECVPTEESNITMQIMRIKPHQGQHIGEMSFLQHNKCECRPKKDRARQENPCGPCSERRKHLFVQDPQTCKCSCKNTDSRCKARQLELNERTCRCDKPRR
- Measurement Description: ELISA
Measured Metric: pEC50
// pEC50 here means minus log10 of the molar concentration (mol/L)

Worked examples follow.
INSERT INTO assay_data (binder, value) VALUES
  ('DVD491 VEGF arm (antibody, V domains shown) VH: EVQLVESGGGLVQPGGSLRLSCAASGFTINASWIHWVRQAPGKGLEWVGAIYPYSGYTNYADSVKGRFTISADTSKNTAYLQMNSLRAEDTAVYYCARWGHSTSPWAMDYWGQGTLVTVSS VL: DIQMTQSPSSLSASVGDRVTITCRASQVIRRSLAWYQQKPGKAPKLLIYAASNLASGVPSRFSGSGSGTDFTLTISSLQPEDFATYYCQQSNTSPLTFGQGTKVEIKR', 5.90),
  ('DVD467 VEGF arm (antibody, V domains shown) VH: EVQLVESGGGLVQPGGSLRLSCAASGFTINASWIHWVRQAPGKGLEWVGAIYPYSGYTNYADSVKGRFTISADTSKNTAYLQMNSLRAEDTAVYYCARWGHSTSPWAMDYWGQGTLVTVSS VL: DIQMTQSPSSLSASVGDRVTITCRASQVIRRSLAWYQQKPGKAPKLLIYAASNLASGVPSRFSGSGSGTDFTLTISSLQPEDFATYYCQQSNTSPLTFGQGTKVEIKR', 5.74),
  ('DVD485 VEGF arm (antibody, V domains shown) VH: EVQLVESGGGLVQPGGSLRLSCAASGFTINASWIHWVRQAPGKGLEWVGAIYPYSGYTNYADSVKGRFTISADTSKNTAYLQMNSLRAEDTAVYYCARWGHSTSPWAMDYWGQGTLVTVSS VL: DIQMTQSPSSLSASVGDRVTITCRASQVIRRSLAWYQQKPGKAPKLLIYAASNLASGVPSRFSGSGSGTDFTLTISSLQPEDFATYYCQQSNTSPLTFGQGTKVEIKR', 6.92),
  ('DVD498 VEGF arm (antibody, V domains shown) VH: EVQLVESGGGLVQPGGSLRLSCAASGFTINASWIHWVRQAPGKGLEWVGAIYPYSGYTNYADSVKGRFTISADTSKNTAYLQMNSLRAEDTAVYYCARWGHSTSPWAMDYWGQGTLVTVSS VL: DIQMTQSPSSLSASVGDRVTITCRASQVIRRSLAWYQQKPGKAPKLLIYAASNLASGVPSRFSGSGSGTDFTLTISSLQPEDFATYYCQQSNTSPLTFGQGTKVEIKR', 7.51),
  ('DVD480 VEGF arm (antibody, V domains shown) VH: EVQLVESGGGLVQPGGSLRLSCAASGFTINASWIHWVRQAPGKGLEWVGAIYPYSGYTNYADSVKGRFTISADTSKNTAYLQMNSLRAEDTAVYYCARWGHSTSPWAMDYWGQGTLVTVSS VL: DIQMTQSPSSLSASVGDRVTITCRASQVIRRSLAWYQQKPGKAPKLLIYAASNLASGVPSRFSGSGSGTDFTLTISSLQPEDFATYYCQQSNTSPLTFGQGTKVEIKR', 7.64),
  ('DVD515 VEGF arm (antibody, V domains shown) VH: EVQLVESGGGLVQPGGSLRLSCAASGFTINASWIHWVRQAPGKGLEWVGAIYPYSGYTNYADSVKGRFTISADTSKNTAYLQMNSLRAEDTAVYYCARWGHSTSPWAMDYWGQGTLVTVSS VL: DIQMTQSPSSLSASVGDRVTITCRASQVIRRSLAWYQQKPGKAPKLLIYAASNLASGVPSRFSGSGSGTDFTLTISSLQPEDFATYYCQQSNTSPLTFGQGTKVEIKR', 5.52);

Determine its reported pEC50: DVD458 VEGF arm (antibody, V domains shown) VH: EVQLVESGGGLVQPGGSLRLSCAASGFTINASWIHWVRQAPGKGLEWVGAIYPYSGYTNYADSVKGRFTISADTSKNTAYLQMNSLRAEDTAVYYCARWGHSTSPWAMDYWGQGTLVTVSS VL: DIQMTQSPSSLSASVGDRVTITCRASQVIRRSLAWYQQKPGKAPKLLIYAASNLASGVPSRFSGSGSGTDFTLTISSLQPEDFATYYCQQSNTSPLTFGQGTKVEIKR
7.67

Determine its reported pEC50: DVD497 VEGF arm (antibody, V domains shown) VH: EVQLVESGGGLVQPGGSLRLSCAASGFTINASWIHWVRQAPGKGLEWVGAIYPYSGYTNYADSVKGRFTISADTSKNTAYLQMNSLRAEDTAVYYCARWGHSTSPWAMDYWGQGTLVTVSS VL: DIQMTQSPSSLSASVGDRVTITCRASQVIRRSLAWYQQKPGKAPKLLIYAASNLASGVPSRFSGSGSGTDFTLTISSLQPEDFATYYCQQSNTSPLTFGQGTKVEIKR
6.07

Determine its reported pEC50: DVD516 VEGF arm (antibody, V domains shown) VH: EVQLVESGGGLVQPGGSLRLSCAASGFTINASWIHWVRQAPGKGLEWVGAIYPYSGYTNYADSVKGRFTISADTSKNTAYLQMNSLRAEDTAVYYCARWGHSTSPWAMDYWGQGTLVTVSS VL: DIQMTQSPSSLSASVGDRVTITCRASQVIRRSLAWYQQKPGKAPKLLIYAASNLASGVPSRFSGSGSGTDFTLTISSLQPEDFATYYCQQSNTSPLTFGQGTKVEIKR
7.61

Determine its reported pEC50: DVD451 VEGF arm (antibody, V domains shown) VH: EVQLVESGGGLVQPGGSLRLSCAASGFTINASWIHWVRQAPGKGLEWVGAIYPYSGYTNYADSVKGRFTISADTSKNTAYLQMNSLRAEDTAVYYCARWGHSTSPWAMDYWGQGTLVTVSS VL: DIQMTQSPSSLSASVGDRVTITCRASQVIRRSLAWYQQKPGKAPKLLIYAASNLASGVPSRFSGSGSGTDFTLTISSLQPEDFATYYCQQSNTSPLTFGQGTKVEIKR
5.62
